Readings of MPO kinact/Ki for the listed compounds
systemName: MPO (purified from human polynuclear leukocytes) (Homo sapiens, UniProt P05164)
Construct: purified from human polynuclear leukocytes; purchased Calbiochem/EMD Biosciences; host or cells: human polynuclear leukocytes (natural source)
Sequence (P05164 279-745 limits assumed): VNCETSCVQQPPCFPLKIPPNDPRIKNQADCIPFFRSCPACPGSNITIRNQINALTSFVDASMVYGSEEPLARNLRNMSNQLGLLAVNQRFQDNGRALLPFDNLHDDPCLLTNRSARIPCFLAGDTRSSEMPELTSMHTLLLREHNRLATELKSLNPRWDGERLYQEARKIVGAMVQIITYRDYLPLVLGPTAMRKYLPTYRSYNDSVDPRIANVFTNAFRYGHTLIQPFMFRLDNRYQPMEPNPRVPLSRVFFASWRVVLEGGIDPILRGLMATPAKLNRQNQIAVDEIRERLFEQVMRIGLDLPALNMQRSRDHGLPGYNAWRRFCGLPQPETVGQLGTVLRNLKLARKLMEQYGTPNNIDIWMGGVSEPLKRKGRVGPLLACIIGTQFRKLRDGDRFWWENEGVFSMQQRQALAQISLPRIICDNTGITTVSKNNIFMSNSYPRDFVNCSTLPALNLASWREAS
Sequence (P05164 165-273 limits assumed): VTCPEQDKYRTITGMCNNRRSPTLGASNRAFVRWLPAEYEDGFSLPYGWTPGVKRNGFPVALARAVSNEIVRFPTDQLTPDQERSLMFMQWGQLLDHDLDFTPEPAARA
runDescription: MPO Amplex Red Activity Assay
Assay type: biochemical
experimentalSetup: Table 1A, 2 μM H2O2, pH 7.4
parameterMeasured: MPO kinact/Ki

compound=COc1cccc(-c2cc(=O)[nH]c(=S)n2CC(N)=O)c1OC result="4480 1/s per M"
compound=COc1ccc(-c2cc(=O)[nH]c(=S)n2CC(=O)N2CC[C@H](N)C2)c(OC)c1 result="4780 1/s per M"
compound=COC(=O)/N=C(/N)NCCCn1c(-c2cc(Cl)ccc2OC)cc(=O)[nH]c1=S result="8740 1/s per M"
compound=N=C(N)NCCCn1c(-c2cc(F)ccc2OCCO)cc(=O)[nH]c1=S result="18700 1/s per M"
compound=CSc1ccccc1-c1cc(=O)[nH]c(=S)n1CC(N)=O result="9290 1/s per M"
compound=COc1ccc(-c2cc(=O)[nH]c(=S)n2CC(=O)N[C@@H](C)CN)c(OC)c1 result="4020 1/s per M"
compound=COc1ccc(-c2cc(=O)[nH]c(=S)n2CC(=O)N[C@H](C)[C@@H](C)N)c(OC)c1 result="3490 1/s per M"
compound=COc1ccc(-c2cc(=O)[nH]c(=S)n2CC(=O)NC2CNC2)c(OC)c1 result="7550 1/s per M"
compound=NC(=O)Cn1c(-c2ccccc2O)cc(=O)[nH]c1=S result="3270 1/s per M"
compound=COc1ccc(-c2cc(=O)[nH]c(=S)n2CC(=O)N2CC[C@@H](N)C2)c(OC)c1 result="4910 1/s per M"
compound=CCNC(=O)Cn1c(-c2ccc(OC)cc2OC)cc(=O)[nH]c1=S result="4070 1/s per M"
compound=COc1ccc(Cl)cc1-c1cc(=O)[nH]c(=S)n1CC(=O)NCCN result="8040 1/s per M"
compound=COc1ccc(-c2cc(=O)[nH]c(=S)n2CCO)c(OCCO)c1 result="18000 1/s per M"
compound=COc1ccc(Cl)cc1-c1cc(=O)[nH]c(=S)n1CC(=O)NC(=N)N result="7870 1/s per M"
compound=O=c1cc(-c2cc(Cl)ccc2OCCO)n(CCO)c(=S)[nH]1 result="13400 1/s per M"
compound=COc1ccc(F)cc1-c1cc(=O)[nH]c(=S)n1CCCNC(=N)N1CC(F)(F)C1 result="7870 1/s per M"
compound=NCCNC(=O)Cn1c(-c2cc(Cl)ccc2OCCO)cc(=O)[nH]c1=S result="6870 1/s per M"
compound=NCCn1c(-c2cccc3ncsc23)cc(=O)[nH]c1=S result="2690 1/s per M"
compound=COc1ccc(-c2cc(=O)[nH]c(=S)n2CC(=O)N(C)CCN)c(OC)c1 result="6250 1/s per M"
compound=CCCNC(=O)Cn1c(-c2ccc(OC)cc2OC)cc(=O)[nH]c1=S result="2420 1/s per M"
compound=NC(=O)Cn1c(-c2cc(Cl)ccc2OCCO)cc(=O)[nH]c1=S result="4410 1/s per M"
compound=COc1cccc(-c2cc(=O)[nH]c(=S)n2CC(N)=O)c1 result="2930 1/s per M"
compound=N=C(N)NCCn1c(-c2cc(Cl)ccc2OCCO)cc(=O)[nH]c1=S result="6490 1/s per M"
compound=CCNC(=N)NCCCn1c(-c2cc(Cl)ccc2OC)cc(=O)[nH]c1=S result="12000 1/s per M"
compound=COc1ccc(-c2cc(=O)[nH]c(=S)n2CCCNC(=N)N)c(OCCO)c1 result="13300 1/s per M"
compound=COc1ccccc1-c1cc(=O)[nH]c(=S)n1CC(=O)NCCN result="6250 1/s per M"
compound=COc1ccc(-c2cc(=O)[nH]c(=S)n2CC(=O)NC[C@@H](C)N)c(OC)c1 result="6980 1/s per M"
compound=COc1cc(Cl)ccc1-c1cc(=O)[nH]c(=S)n1CC(N)=O result="9280 1/s per M"
compound=COc1ccc(-c2cc(=O)[nH]c(=S)n2CC(=O)NCCNC(=O)[C@H](C)N)c(OC)c1 result="4860 1/s per M"
